Target: VDR (pGal4-VDR-LBD) (Homo sapiens)
Construct: the receptor expression vector pGal4-VDR-LBD (10 ng)
Sequence (P11473 127-423 limits assumed): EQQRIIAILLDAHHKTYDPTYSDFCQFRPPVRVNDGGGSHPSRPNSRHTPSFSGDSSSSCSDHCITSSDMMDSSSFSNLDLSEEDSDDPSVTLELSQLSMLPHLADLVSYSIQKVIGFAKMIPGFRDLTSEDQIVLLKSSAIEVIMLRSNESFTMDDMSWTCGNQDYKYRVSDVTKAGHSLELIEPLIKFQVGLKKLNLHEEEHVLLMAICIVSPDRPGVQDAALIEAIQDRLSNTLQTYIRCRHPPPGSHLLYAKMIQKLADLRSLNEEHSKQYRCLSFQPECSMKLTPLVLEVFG
Test: VDR CTF (Caco-2 cell co-transfection assay)
Settings: Caco-2 cells, Gal4-responsive reporter pFRLuc; surrogate for calcemic activity
endpoint name: pEC50
Scale for pEC50: -log10 of concentration given in mol/L; no unit attached.

-- ask Would you mind telling me what pEC50 value was observed for CCC(O)(CC)COc1ccc(C(CC)(CC)c2ccc(C(=O)NCC(=O)O)c(C)c2)cc1C ?
-- reply 6.09

-- ask Ok, now CCC(CC)(c1ccc(C#CC2(O)CCCC2)c(C)c1)c1ccc(C(=O)NC(C)(C)C(=O)O)c(C)c1
-- reply 6.33

-- ask Quick one: CCC(O)(C#Cc1ccc(C(CC)(CC)c2ccc(C(=O)NC(C)(C)C(=O)O)c(C)c2)cc1C)CC
-- reply 6.40

-- ask And for CCC(CC)(c1ccc(OCC(O)(C(C)C)C(C)C)c(C)c1)c1ccc(C(=O)NCC(=O)O)c(C)c1 ?
-- reply 6.01

---

Test: Mouse hypercalcemia assay
Assay type: in vivo
Settings: female DBF mice, oral gavage for 6 days, serum ionized calcium 6 hours after last dosing
endpoint name: Mouse Hypercal (µg/kg/day)
Give just the number in µg/kg/day; leave the unit off.

Reference set (2 entries):
CCC(CC)(c1ccc(C#CC2(O)CCCC2)c(C)c1)c1ccc(C(=O)NC(C)(C)C(=O)O)c(C)c1 [Ex. 1] : 3000
CCC(CC)(c1ccc(OCC(=O)C(C)(C)C)c(C)c1)c1ccc(OCC(=O)C(C)(C)C)c(C)c1 [DD, reference compound] : 1000

Moving on to another molecule below.
-- ask Need Mouse Hypercal of CCC(CC)(c1ccc(OCC(O)CO)c(C)c1)c1ccc(OCC(O)C(C)(C)C)c(C)c1 (centres unmarked) [BB, reference compound] , thanks.
-- reply 20

---

Target: RXR-VDR heterodimer (Gal4-RXR-DEF and VP16-VDR-LBD) (Homo sapiens)
Construct: Add the Gal4-RXR-DEF and VP16-VDR-LBD
Test: RXR-VDR heterodimerization assay (SaOS-2 cells)
Details: luciferase reporter pFR-LUC
endpoint name: EC50 (nM)
Write the number in nM without appending the unit.

-- ask Fill in: EC50 of CCC(CC)(c1ccc(C#CC2(O)CCCC2)c(C)c1)c1ccc(C(=O)NC(C)(C)C(=O)O)c(C)c1 [Ex. 1] is ___
-- reply 68.6

---

Tested on: rat osteocalcin promoter
Test: OCN (osteocalcin) promoter assay
Assay type: cell-based
Conditions: Rattus norvegicus, 48 h, RG-15 (ROS 17/2.8) cells, 48 hr treatment, luciferase
pEC50: −log10 of the molar value.
Quick rule: pEC50 of at least 8 means MET, below that means NOT MET.

Known results for compounds:
CCC(CC)(c1ccc(OCC(=O)C(C)(C)C)c(C)c1)c1ccc(OC[C@H](O)C(C)(C)C)c(C)c1 [EE, reference compound] : NOT MET
CCC(CC)(c1ccc(OCC(O)(C(C)C)C(C)C)c(C)c1)c1ccc(C(=O)NCC(=O)O)c(C)c1 [Ex. 4] : NOT MET
CCC(CC)(c1ccc(C#CC2(O)CCCC2)c(C)c1)c1ccc(C(=O)NC(C)(C)C(=O)O)c(C)c1 [Ex. 1] : MET
CCC(O)(C#Cc1ccc(C(CC)(CC)c2ccc(C(=O)NC(C)(C)C(=O)O)c(C)c2)cc1C)CC [Ex. 2] : MET

Next compound, please.
-- ask Check the entry CCC(CC)(c1ccc(OCC(=O)C(C)(C)C)c(C)c1)c1ccc(OCC(=O)C(C)(C)C)c(C)c1 [DD, reference compound] : does pEC50 equal or exceed 8?
-- reply NOT MET
